Data origin, for the record: patent US11434242B2

I'd appreciate it if you could supply Plasma (0.01 μM), activity in % of control values for the items below.
Biological target: Dopamine beta hydroxylase (Homo sapiens)
Construct: 125 μl of plasma; tissue Instituto Português do Sangue Transplantação; host or cells: human plasma from healthy donors
Sequence (P09172 40-617 limits assumed): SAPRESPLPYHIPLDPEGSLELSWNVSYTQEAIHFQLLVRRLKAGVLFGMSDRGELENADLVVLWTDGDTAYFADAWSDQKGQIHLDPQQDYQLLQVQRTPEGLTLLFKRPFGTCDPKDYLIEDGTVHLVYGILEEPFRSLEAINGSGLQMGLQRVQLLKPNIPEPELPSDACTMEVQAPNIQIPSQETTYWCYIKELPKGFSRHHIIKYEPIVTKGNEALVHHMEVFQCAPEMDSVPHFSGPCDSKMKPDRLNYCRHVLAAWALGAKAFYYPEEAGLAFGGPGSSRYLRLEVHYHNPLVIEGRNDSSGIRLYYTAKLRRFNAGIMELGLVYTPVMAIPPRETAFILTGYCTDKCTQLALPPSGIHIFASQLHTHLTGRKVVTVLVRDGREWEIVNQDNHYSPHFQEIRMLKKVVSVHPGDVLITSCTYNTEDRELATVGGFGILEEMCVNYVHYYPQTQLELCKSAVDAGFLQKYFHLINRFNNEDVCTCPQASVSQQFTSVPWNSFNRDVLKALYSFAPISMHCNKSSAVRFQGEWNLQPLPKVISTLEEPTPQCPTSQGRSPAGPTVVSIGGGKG
Assay: Dopamine beta hydroxylase activity in human plasma
Assay type: biochemical
Conditions: inhibitor 0.01 μM

The examples below pair each entry with its known result.
INSERT INTO results (compound, result) VALUES
  ('O=C(Cc1[nH]c(=S)n2c1C[C@@H](c1c(F)ccc(Cl)c1F)C2)NCC(F)(F)F [Example 113]', '85.1 % of control'),
  ('O=C(Cc1[nH]c(=S)n2c1C[C@@H](c1c(F)ccc(Br)c1F)C2)NCc1cccnc1 [Example 124]', '42.8 % of control'),
  ('CN(C(=O)Cc1c2n(c(=S)n1C)C[C@@]1(c3cc(Cl)ccc3F)C[C@@H]21)C1COC1 [Example 431]', '54.3 % of control'),
  ('Cn1c(CC(=O)N2CCOCC2)c2n(c1=S)C[C@@]1(c3c(F)ccc(Cl)c3F)C[C@@H]21 [Example 421]', '26.1 % of control'),
  ('Cn1c(CC(=O)N2CCCO2)c2n(c1=S)C[C@H](c1c(F)ccc(Cl)c1F)C2 [Example 444]', '73.5 % of control');

# batch: return Plasma (0.01 μM), activity in % of control for each of the 5 compounds below
1. Cl.Cn1c(CCNCC(F)(F)F)c2n(c1=S)C[C@@]1(c3cc(Br)ccc3F)C[C@@H]21 [Example 334]
2. Cn1c(CC(=O)N2CCC[C@H]2CO)c2n(c1=S)C[C@H](c1c(F)ccc(Br)c1F)C2 [Example 241]
3. Cn1c(C2(C(=O)N[C@@H]3CCOC3)CC2)c2n(c1=S)C[C@H](c1c(F)ccc(Br)c1F)C2 [Example 234]
4. Cn1c(CC(=O)N2CCOCC2)c2n(c1=S)C[C@H](c1c(F)ccc(F)c1F)C2 [Example 411]
5. O=C(Cc1[nH]c(=S)n2c1C[C@H](c1c(F)c(F)cc(F)c1F)C2)NC[C@@H]1CCCO1 [Example 395]

[out]
80.3 % of control
51.7 % of control
43.4 % of control
104.2 % of control
96.9 % of control

# batch: return Plasma (0.01 μM), activity in % of control for each of the 6 compounds below
1. Cn1c(CC(=O)NCC2CCOCC2)c2n(c1=S)C[C@H](c1c(F)ccc(F)c1F)C2 [Example 427]
2. Cn1c(CC(=O)N[C@@H]2CCCOC2)c2n(c1=S)C[C@@H](c1c(F)ccc(F)c1F)C2 [Example 255]
3. Cn1c(CC(=O)O)c2n(c1=S)C[C@@H](c1c(F)c(F)cc(F)c1F)C2 [Example 229]
4. O=C(Cc1[nH]c(=S)n2c1C[C@H](c1c(F)ccc(Br)c1F)C2)N[C@@H]1CCOC1 [Example 116]
5. Cn1c(CC(=O)N2CCOCC2)c2n(c1=S)C[C@@]1(c3cc(Br)ccc3F)C[C@@H]21 [Example 436]
6. O=C(Cc1[nH]c(=S)n2c1C[C@H](c1c(F)ccc(Br)c1F)C2)NC1CCCC1CO (stereo partly shown) [Example 120]

[out]
78.1 % of control
71.8 % of control
84.3 % of control
93.8 % of control
73.6 % of control
132.5 % of control
